Hi! I'm sharing some pIC50 results obtained with Mtb IMPDH (Mycobacterium tuberculosis, UniProt P9WKI7).
Sequence (P9WKI7 whole entry, looked up): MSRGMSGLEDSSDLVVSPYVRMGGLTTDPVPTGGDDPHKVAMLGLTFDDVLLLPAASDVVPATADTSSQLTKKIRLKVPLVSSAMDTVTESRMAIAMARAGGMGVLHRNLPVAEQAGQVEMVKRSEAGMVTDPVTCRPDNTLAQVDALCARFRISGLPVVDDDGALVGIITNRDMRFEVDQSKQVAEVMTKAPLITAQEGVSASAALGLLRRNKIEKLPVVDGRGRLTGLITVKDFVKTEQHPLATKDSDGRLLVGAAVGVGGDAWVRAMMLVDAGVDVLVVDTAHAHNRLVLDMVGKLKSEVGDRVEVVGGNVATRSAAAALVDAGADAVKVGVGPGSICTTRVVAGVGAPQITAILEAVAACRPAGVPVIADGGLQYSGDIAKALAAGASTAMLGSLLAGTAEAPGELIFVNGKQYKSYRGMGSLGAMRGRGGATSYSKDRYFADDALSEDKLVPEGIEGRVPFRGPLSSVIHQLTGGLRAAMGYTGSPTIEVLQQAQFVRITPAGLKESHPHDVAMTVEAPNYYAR
Answers are plain numbers, as −log10 of the molar value.

Example entries and their recorded answers appear below.
molecule	pIC50
CC1(C(=O)N2CCN(S(=O)(=O)c3cccc4cnccc34)CC2)CCCCC1	5.62
O=C(Nc1ccc(Cl)c([N+](=O)[O-])c1)N1CCN(S(=O)(=O)c2cccc3cnccc23)CC1	5.25
O=C(NCCNS(=O)(=O)c1cccc2cnccc12)C1CCCCC1	6.30

Now for a further compound.
**Query** Any idea what its pIC50 is? The compound is "O=C(NCc1ccccc1)N1CCN(S(=O)(=O)c2cccc3cnccc23)CC1"
**Result** 6.46
